Tested on: Caco-2 cells
Experiment: Membrane permeability test using Caco-2 cells with preincubation
Type: in vitro ADME
Conditions: Caco-2 cells, preincubation 20 to 24 hours; apical FaSSIF/HBSS 1% DMSO pH 6.0, basal HBSS 4% BSA pH 7.4; basal sample at 180 minutes
Non-standard residues stand in square brackets, D forms with d. Residues, ends and D or L forms follow the SMILES beside them. *: point of attachment. NMeF = CN[C@@H](Cc1ccccc1)C(=O)O; NMeL = CN[C@@H](CC(C)C)C(=O)O; NMeV = CN[C@H](C(=O)O)C(C)C; d(β3hA) = C[C@@H](N)CC(=O)O; NMeA = CN[C@@H](C)C(=O)O; dNMeA = CN[C@H](C)C(=O)O; tBu = CC(C)(C)*
Assay metric: Caco2 Papp (10^-6 cm/sec)

Value of measured Caco2 Papp (10^-6 cm/sec) for the entry CC[C@H](C)[C@@H]1NC(=O)[C@@H]2CCCN2C(=O)[C@H](C(C)C)N(C)C(=O)[C@@H](C)N(C)C(=O)C[C@@H](C)NC(=O)[C@H](C(C)C)N(C)C(=O)[C@H](Cc2ccccc2)N(C)C(=O)[C@H](COC(C)(C)C)NC(=O)[C@H](CC(C)C)N(C)C(=O)[C@H](C)N(C)C(=O)[C@H](CC(C)C)N(C)C(=O)[C@H]([C@@H](C)O)NC(=O)[C@H](Cc2ccccc2)N(C)C1=O [pd136] (cyclo(I[NMeF]T[NMeL][NMeA][NMeL]S(tBu)[NMeF][NMeV][d(β3hA)][dNMeA][NMeV]P)) : 0.53 10^-6 cm/sec

====

Test system: Caco-2 cells
Assay: Membrane permeability test using Caco-2 cells with preincubation
Type: in vitro ADME
Conditions: Caco-2 cells, preincubation 20 to 24 hours; apical FaSSIF/HBSS 1% DMSO pH 6.0, basal HBSS 4% BSA pH 7.4; basal sample at 180 minutes
Starred links: 1 amine or outer side, 2 acyl side, 3 side chain; linkers in the order of their positions; H or OH if unused. Positions of bridges follow the written chain, without caps; N, C: chain ends. Non-standard residues stand in square brackets, D forms with d. Residues, ends and D or L forms follow the SMILES beside them. *: point of attachment. NMedβ3hAla = C[C@H](CC(=O)[*:2])N(C)[*:1]; NMeF = CN[C@@H](Cc1ccccc1)C(=O)O; NMeI = CC[C@H](C)[C@H](NC)C(=O)O; hPhe = N[C@@H](CCc1ccccc1)C(=O)O; NMeβAla = CN(CCC(=O)[*:2])[*:1]; NMeD = CN[C@@H](CC(=O)O)C(=O)O; NMeL = CN[C@@H](CC(C)C)C(=O)O; NMeA = CN[C@@H](C)C(=O)O; Piperidide = C1CCN(*)CC1; Abu = CC[C@H](N)C(=O)O; βAla = NCCC(=O)O; Sar = CNCC(=O)O
Assay metric: Caco2 Papp (10^-6 cm/sec)

CC[C@@H]1NC(=O)[C@H](CC(C)C)N(C)C(=O)[C@H](CC(C)C)NC(=O)[C@H](C)N(C)C(=O)C[C@@H](C(=O)N2CCCCC2)N(C)C(=O)[C@H](C)N(C)C(=O)[C@H](CC(C)C)NC(=O)[C@H](CC(C)C)N(C)C(=O)CNC(=O)[C@H]([C@@H](C)CC)N(C)C(=O)[C@H](Cc2ccccc2)N(C)C(=O)[C@H](C)NC(=O)[C@H]([C@@H](C)CC)NC(=O)[C@H](Cc2ccccc2)N(C)C1=O [pd075] ([NMeA]L[NMeL][Abu][NMeF]IA[NMeF][NMeI]G[NMeL]L[NMeA][NMeD]-Piperidide; lactam N-14): 0.17 10^-6 cm/sec
CC[C@H](C)[C@H]1C(=O)N[C@@H]([C@@H](C)O)C(=O)N(C)CC(=O)N(C)[C@@H](CC(C)C)C(=O)N[C@@H](CC(C)C)C(=O)N[C@H](C(=O)N2CCCCC2)CC(=O)N(C)[C@@H](C)C(=O)N[C@@H](CC(C)C)C(=O)N(C)[C@@H](CC(C)C)C(=O)N(C)CCC(=O)N(C)[C@@H](Cc2ccccc2)C(=O)NCCC(=O)N(C)[C@@H](Cc2ccccc2)C(=O)N1C [pd113] ([NMeA]L[NMeL][NMeβAla][NMeF][βAla][NMeF][NMeI]T[Sar][NMeL]LD-Piperidide; lactam N-13): 0.20 10^-6 cm/sec
CC[C@H](C)[C@H]1C(=O)N[C@@H]([C@@H](C)O)C(=O)N(C)CC(=O)N(C)[C@@H](CC(C)C)C(=O)N[C@@H](CC(C)C)C(=O)N[C@H](C(=O)N2CCCCC2)CC(=O)N(C)[C@@H](C)C(=O)N[C@@H](CC(C)C)C(=O)N(C)[C@@H](CC(C)C)C(=O)N[C@@H](C(C)C)C(=O)N(C)CCC(=O)N(C)[C@@H](Cc2ccccc2)C(=O)N[C@@H](C)C(=O)N(C)[C@@H](Cc2ccccc2)C(=O)N1C [pd037] ([NMeA]L[NMeL]V[NMeβAla][NMeF]A[NMeF][NMeI]T[Sar][NMeL]LD-Piperidide; lactam N-14): 0.26 10^-6 cm/sec

Turning now to a further record.
Value of measured Caco2 Papp (10^-6 cm/sec) for the entry CC[C@@H]1NC(=O)[C@H](C(C)C)NC(=O)[C@H]([C@@H](C)CC)N(C)C(=O)[C@H](CCc2ccccc2)NC(=O)[C@H](Cc2ccccc2)N(C)C(=O)[C@H]([C@@H](C)CC)NC(=O)[C@H](CC(C)C)N(C)C(=O)[C@H](CC(C)C)NC(=O)CCN(C)C(=O)C[C@@H](C)N(C)C(=O)[C@H](CC(C)C)N(C)C(=O)CNC(=O)[C@@H]2CCCN2C(=O)[C@H](CC(C)C)N(C)C1=O [pd064] (cyclo([Abu][NMeL]PG[NMeL][NMedβ3hAla][NMeβAla]L[NMeL]I[NMeF][hPhe][NMeI]V)) : 0.04 10^-6 cm/sec

====

# Papp A→B values compiled below
Assay: Membrane permeability test using Caco-2 cells with preincubation
Format: in vitro ADME
Conditions: Caco-2; preincubation 20 to 24 hours; Apical FaSSIF/HBSS pH 6.0, Basal HBSS 4% BSA pH 7.4; 180 minutes; read-out: Caco2 Papp
Starred links: 1 amine or outer side, 2 acyl side, 3 side chain; linkers in the order of their positions; H or OH if unused. Positions of bridges follow the written chain, without caps; N, C: chain ends. Non-standard residues stand in square brackets, D forms with d. Residues, ends and D or L forms follow the SMILES beside them. *: point of attachment. NMedβ3hAla = C[C@H](CC(=O)[*:2])N(C)[*:1]; NMeF = CN[C@@H](Cc1ccccc1)C(=O)O; NMeGABA = CN(CCCC(=O)[*:2])[*:1]; NMeI = CC[C@H](C)[C@H](NC)C(=O)O; NMeT = CN[C@H](C(=O)O)[C@@H](C)O; hPhe = N[C@@H](CCc1ccccc1)C(=O)O; NMeβAla = CN(CCC(=O)[*:2])[*:1]; NMeD = CN[C@@H](CC(=O)O)C(=O)O; NMeL = CN[C@@H](CC(C)C)C(=O)O; NMeV = CN[C@H](C(=O)O)C(C)C; d(β3hA) = C[C@@H](N)CC(=O)O; NMeAbu = CC[C@H](NC)C(=O)O; NMeA = CN[C@@H](C)C(=O)O; Piperidide = C1CCN(*)CC1; NBuGly = CCCCNCC(=O)O; Sar = CNCC(=O)O; tBu = CC(C)(C)*
// units = ×10⁻⁶ cm/s; emit number, no label

CC[C@H](C)[C@@H]1NC(=O)[C@H](Cc2ccccc2)N(C)C(=O)CN(C)C(=O)C[C@@H](C(=O)N2CCCCC2)NC(=O)[C@H]([C@@H](C)CC)N(C)C(=O)[C@H](COC(C)(C)C)NC(=O)[C@@H]2CCCN2C(=O)[C@H](CCc2ccccc2)NC(=O)[C@H](CC)N(C)C(=O)[C@H](CC(C)C)NC(=O)[C@H](CC(C)C)N(C)C(=O)[C@H]([C@@H](C)O)N(C)C(=O)[C@H](CC(C)C)N(C)C1=O [pd114] ([Sar][NMeF]I[NMeL][NMeT][NMeL]L[NMeAbu][hPhe]PS(tBu)[NMeI]D-Piperidide; lactam N-13): 0.16
CC[C@H](C)[C@@H]1NC(=O)[C@H](C)N(C)C(=O)CCCN(C)C(=O)C[C@@H](C)NC(=O)[C@H](C(C)C)N(C)C(=O)[C@H](CCc2ccccc2)NC(=O)[C@H](C)N(C)C(=O)[C@H]([C@@H](C)O)N(C)C(=O)[C@H](CC(C)C)N(C)C(=O)[C@H](C(C)C)NC(=O)[C@H](Cc2ccccc2)N(C)C(=O)[C@H](C)N(C)C(=O)[C@H](C(C)C)N(C)C1=O [pd137] (cyclo(I[NMeV][NMeA][NMeF]V[NMeL][NMeT][NMeA][hPhe][NMeV][d(β3hA)][NMeGABA][NMeA])): 0.55
CC[C@H](C)[C@@H]1NC(=O)[C@H](C)N(C)C(=O)[C@H]([C@@H](C)O)NC(=O)[C@H](CC(C)C)N(C)C(=O)[C@H](COC(C)(C)C)NC(=O)[C@H](Cc2ccccc2)N(C)C(=O)[C@H]([C@@H](C)CC)NC(=O)CNC(=O)[C@H](Cc2ccccc2)N(C)C(=O)[C@H](CC(C)C)N(C)C(=O)CCCN(C)C(=O)C[C@@H](C)N(C)C(=O)[C@H](CC(C)C)NC1=O [pd145] (cyclo(GI[NMeF]S(tBu)[NMeL]T[NMeA]IL[NMedβ3hAla][NMeGABA][NMeL][NMeF])): 0.05
CC[C@H](C)[C@@H]1NC(=O)[C@H](CC(C)C)N(C)C(=O)[C@H](CC(C)C)NC(=O)CCN(C)C(=O)C[C@@H](C(=O)N2CCCCC2)N(C)C(=O)[C@H](CC(C)C)N(C)C(=O)[C@H](C)N(C)C(=O)[C@H]([C@@H](C)O)N(C)C(=O)[C@H](CC(C)C)N(C)C(=O)[C@H](COC(C)(C)C)NC(=O)[C@H](Cc2ccccc2)N(C)C(=O)[C@H](CC(C)C)N(C)C(=O)[C@H](Cc2ccccc2)N(C)C1=O [pd166] ([NMeβAla]L[NMeL]I[NMeF][NMeL][NMeF]S(tBu)[NMeL][NMeT][NMeA][NMeL][NMeD]-Piperidide; lactam N-13): 0.13
CC[C@H](C)[C@H]1C(=O)N[C@@H]([C@@H](C)O)C(=O)N(C)CC(=O)N(C)[C@@H](CC(C)C)C(=O)N[C@@H](CC(C)C)C(=O)N[C@H](C)CC(=O)N(C)[C@@H](C)C(=O)N[C@@H](CC(C)C)C(=O)N(C)[C@@H](C)C(=O)N(C)[C@@H](CC(C)C)C(=O)N[C@@H](COC(C)(C)C)C(=O)N(C)[C@@H](Cc2ccccc2)C(=O)N[C@@H](C(C)C)C(=O)N(C)[C@@H](CC(C)C)C(=O)N1C [pd052] (cyclo(L[NMeA][NMeL]S(tBu)[NMeF]V[NMeL][NMeI]T[Sar][NMeL]L[d(β3hA)][NMeA])): 1.01
CCCCN1CC(=O)N(C)[C@@H](CC(C)C)C(=O)N[C@@H]([C@@H](C)O)C(=O)N(C)[C@@H](CC(C)C)C(=O)N2CCC[C@H]2C(=O)N[C@@H](CCc2ccccc2)C(=O)N[C@@H]([C@@H](C)CC)C(=O)N(C)[C@H](C(=O)N2CCCCC2)CC(=O)N(C)[C@@H](CC(C)C)C(=O)N[C@@H](COC(C)(C)C)C(=O)N(C)[C@@H](C(C)C)C(=O)N[C@@H]([C@@H](C)CC)C(=O)N2CCC[C@H]2C1=O [pd159] ([NMeL]S(tBu)[NMeV]IP[NBuGly][NMeL]T[NMeL]P[hPhe]I[NMeD]-Piperidide; lactam N-13): 0.64

Turning now to a further record.
Value of measured Papp A→B for the entry CC(C)C[C@H]1C(=O)N2CCC[C@H]2C(=O)N(C)[C@@H](Cc2ccccc2)C(=O)N[C@@H](C(C)C)C(=O)N(C)[C@@H](C)C(=O)N(C)[C@@H](C(C)C)C(=O)N[C@H](C(=O)N2CCCCC2)CC(=O)N[C@H](C(C)C)C(=O)N(C)[C@@H]([C@@H](C)O)C(=O)N(C)[C@@H](CC(C)C)C(=O)N(C)[C@@H](C(C)C)C(=O)N(C)[C@@H](CC(C)C)C(=O)N[C@@H](CCc2ccccc2)C(=O)N(C)CC(=O)N1C [pd047] ([dV][NMeT][NMeL][NMeV][NMeL][hPhe][Sar][NMeL]P[NMeF]V[NMeA][NMeV]D-Piperidide; lactam N-14) : 0.16
